experiment: HepG2 cell viability effects, profiling panel, calcein-AM fluorescence, 48 h, basal (AID 1164); settings: higher = more signal; also: test concentration not given here
quantity.kind: z-score
Lab note: record the figure alone, no unit after it.

molecule=COc1ccc(-c2cc3c(c(CCc4ccccc4)n2)[Si](C(C)C)(C(C)C)OC3)cn1 quantity_kind=z-score experimental_result=-0.999

Looking for the measured z-score of CCCNC(=O)[C@@H]1c2ccccc2C(=O)N(C(C)C)[C@H]1c1ccc(CO)cc1 , can you help?
0.997

Report z-score for C[N+](C)(C)CCCCCCNC(=O)[C@H]1C[C@H]2C(=O)NCC(=O)N2[C@H]1c1ccc(O)cc1 please.
-0.799

Query (molecule): COc1cc2c(cc1OC)CN(C(=O)[C@@H]1[C@H]3C(=O)O[C@H](c4ccccc4)[C@H](c4ccccc4)N3[C@H](c3ccc(OCCO)cc3)[C@@]13C(=O)Nc1ccc(C#CC4(O)CCCCCC4)cc13)CC2 ; field requested: z-score
0.988

What does the data say about its z-score? Entry: CC(CO)N1C(=O)[C@@H]2[C@H]3C(=O)OCC=C[C@H]3OC23C=CCN(Cc2ccccc2)C(=O)[C@@H]13 (some centres not stated)
-1.35

Which z-score value belongs to COc1ccc(CN(C2=CC[C@@]3(C(N)=O)C(=O)C(Cl)=C(Cl)C(=O)[C@@]3(C#N)C2)S(=O)(=O)c2ccc(Br)cc2)cc1 ?
0.0144

Which z-score value belongs to O=C1C2C=CC(C(O)c3ccc(F)cc3)N(n3cnnc3)C2C(=O)N1Cc1ccccc1 (configuration not stated) ?
-1
